Origin of measurements: ChEMBL document CHEMBL2034816

recordedEndpoint: pKi
Reminder that pKi means the negative base-10 logarithm of the concentration expressed in mol/L.

Hi! What's the reported pKi for O=C(N[C@@H]1Cc2ccccc2[C@@H]1O)C(OCc1ccccc1)[C@H](O)[C@@H](O)C(OCc1ccccc1)C(=O)N[C@@H]1Cc2ccccc2[C@@H]1O (stereo partly specified) on Protease (Human immunodeficiency virus 1)?
8.91

---

# targetDesc: Protease (Human immunodeficiency virus 1, UniProt Q9YQ12)
# Sequence (Q9YQ12 whole entry): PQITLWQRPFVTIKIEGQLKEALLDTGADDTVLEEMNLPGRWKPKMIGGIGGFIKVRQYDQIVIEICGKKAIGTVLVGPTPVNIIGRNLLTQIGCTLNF
# assay: Inhibition of HIV1 protease
recordedEndpoint: IC50

Sample COC(=O)[C@H](CC(C)C)NC(=O)[C@H](Cc1ccccc1)NC(=O)[C@@H]1O[C@@H](C(=O)N[C@@H](Cc2ccccc2)C(C)N[C@@H](CC(C)C)C(=O)OC)[C@@H](O)[C@@H]1O (some centres not stated) — what was its IC50?
> 2000 µM

Query: IC50; subject: CC(C)(C)OC(=O)N[C@@H](Cc1ccccc1)[C@@H](O)CC(C/C=C/c1ccccc1)C(=O)N[C@H](C(=O)NC[C@H]1OC(O)[C@H](O)[C@H]1O)C1CCCCC1 (some centres not stated)
0.00017 µM

---

Assignment: determine reported pIC50 for the given compounds.
# targetDesc: Protease (Human immunodeficiency virus 1, UniProt Q9YQ12)
# assay: Inhibition of South African HIV1 subtype C protease expressed in Escherichia coli BL21S4 (DE3)pLysS cells using Lys-Ala-Arg-Val-Nle-p-nitro-Phe-Glu-Ala-Nle-NH2 as substrate by spectrophotometry
Note on pIC50: it is the negative log10 of concentration, concentration in mol/L.

What is its pIC50 for Protease (Human immunodeficiency virus 1, UniProt Q9YQ12)? Entry: CC(C)[C@H](NC(=O)C[C@H](NCc1ccccc1)C1O[C@@H]2OC(C)(C)O[C@@H]2[C@H]1OCc1ccccc1)C(=O)N[C@@H](C)C(=O)O (some centres undefined)
5.89

Form: Entry = CC(C)[C@H](NC(=O)C[C@@H](NCc1ccccc1)C1O[C@@H]2OC(C)(C)O[C@@H]2[C@H]1OCc1ccccc1)C(=O)N[C@@H](C)C(=O)O (some centres undefined) | System = Protease (Human immunodeficiency virus 1, UniProt Q9YQ12) | pIC50 = ____
5.96

Give pIC50 (Protease (Human immunodeficiency virus 1, UniProt Q9YQ12)) of the following compound: CC(C)[C@H](NC(=O)[C@H](C)NC(=O)C[C@@H](NCc1ccccc1)C1O[C@@H]2OC(C)(C)O[C@@H]2[C@H]1OCc1ccccc1)C(=O)O (some centres undefined)
5.99

Please state recorded pIC50 (tested on Protease (Human immunodeficiency virus 1, UniProt Q9YQ12)) of CC(C)[C@H](NC(=O)C[C@@H](N)C1O[C@@H]2OC(C)(C)O[C@@H]2[C@H]1O)C(=O)N[C@@H](C)C(=O)O (some centres undefined)
6.02

Given the entry CC(C)[C@H](NC(=O)[C@H](C)NC(=O)C[C@H](NCc1ccccc1)C1O[C@@H]2OC(C)(C)O[C@@H]2[C@H]1O)C(=O)O (some centres undefined) , what pIC50 was observed with Protease (Human immunodeficiency virus 1, UniProt Q9YQ12)?
6.15

pIC50 of CC(C)[C@H](NC(=O)C[C@H](N)C1O[C@@H]2OC(C)(C)O[C@@H]2[C@H]1O)C(=O)N[C@@H](C)C(=O)O (some centres undefined) on Protease (Human immunodeficiency virus 1, UniProt Q9YQ12)?
6.00

Please state recorded pIC50 (tested on Protease (Human immunodeficiency virus 1, UniProt Q9YQ12)) of CC(C)[C@H](NC(=O)[C@H](C)NC(=O)C[C@H](NCc1ccccc1)C1O[C@@H]2OC(C)(C)O[C@@H]2[C@H]1OCc1ccccc1)C(=O)O (some centres undefined)
6.12
